Biological target: T1, extracellular domain of human BCMA (human, UniProt Q02223 1-54)
T1 construct: amine-linked to Octet AR2G tips; also called hsBCMA; BCMA (human)
T1 sequence: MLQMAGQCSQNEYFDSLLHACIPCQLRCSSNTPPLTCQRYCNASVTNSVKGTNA
Assay: Octet BLI; Fab 200 nM
readout label: pKd
Please keep in mind that pKd is minus log10 of the molar concentration; only the number is needed.

Task: Could you share which pKd value was measured for AB200-(2Vk44)_R2-VH-v64 (Fab, V domains shown) VH: QVQLVQSGAEVKKPGSSVKVSCKASGGTFSNYWIHWVRQAPGQGLEWMGATYRIHSTTYYAQKFKSRVTITADKSTSTAYMELSSLRSEDTAVYYCARGAIYHGFDVIDNWGQGTLVTVSS VL: DIQMTQSPSSLSASVGDRVTITCRASQSISSYINWYQQKPGKAPKLLIYATSNLQIGVPSRFSGSGSGTDFTLTISSLQPEDFATYYCQQYRRLPWSFGQGTKLEIKR ?
Output: 7.66

Task: Fill blank: measured pKd of the binder AB200-(2Vk44)_R2-VH-v60 (Fab, V domains shown) VH: QVQLVQSGAEVKKPGSSVKVSCKASGGTFSNYWIHWVRQAPGQGLEWMGGTYRIQSDTYYNQKFKSRVTITADKSTSTAYMELSSLRSEDTAVYYCARGAIYHGYDVIENWGQGTLVTVSS VL: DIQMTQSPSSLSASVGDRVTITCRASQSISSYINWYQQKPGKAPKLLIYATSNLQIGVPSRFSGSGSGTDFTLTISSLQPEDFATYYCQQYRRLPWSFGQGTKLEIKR is ____.
Output: 7.96

Task: Give the measured pKd of AB200-(2Vk44)_R2-VH-v44 (Fab, V domains shown) VH: QVQLVQSGAEVKKPGSSVKVSCKASGGTFTNYWIHWVRQAPGQGLEWMGATYRIHSDTNYAQKFKSRVTITADKSTSTAYMELSSLRSEDTAVYYCARGAIYHGYDVIENWGQGTLVTVSS VL: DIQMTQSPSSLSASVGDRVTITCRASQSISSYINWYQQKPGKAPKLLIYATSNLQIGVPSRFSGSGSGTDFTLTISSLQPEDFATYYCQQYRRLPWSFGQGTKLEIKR .
Output: 7.06

Task: Requested read-out: pKd. Entry: AB200-(2Vk44)_R2-VH-v75 (Fab, V domains shown, also called AB200_VH2-75_VK2-44) VH: QVQLVQSGAEVKKPGSSVKVSCKASGGTFSNYWIHWVRQAPGQGLEWMGATYRIQSDTYYNQKYKSRVTITADKSTSTAYMELSSLRSEDTAVYYCARGAVYHGYDVIDNWGQGTLVTVSS VL: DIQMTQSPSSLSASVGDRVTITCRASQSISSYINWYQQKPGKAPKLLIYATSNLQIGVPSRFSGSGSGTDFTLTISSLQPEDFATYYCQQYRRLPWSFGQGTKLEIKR
Output: 9.10

Task: Would you kindly share the measured pKd for AB200-(2Vk44)_R2-VH-v28 (Fab, V domains shown) VH: QVQLVQSGAEVKKPGSSVKVSCKASGGTFSNYWIHWVRQAPGQGLEWMGATYRSHSTTYYNQKYKSRVTITADKSTSTAYMELSSLRSEDTAVYYCARGAIYHGFDVIDNWGQGTLVTVSS VL: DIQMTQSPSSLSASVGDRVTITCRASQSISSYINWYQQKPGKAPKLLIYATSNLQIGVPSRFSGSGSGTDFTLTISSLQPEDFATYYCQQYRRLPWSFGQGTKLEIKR ?
Output: 7.96

Task: Can you share its pKd? I mean this binder: AB200-(2Vk44)_R2-VH-v22 (Fab, V domains shown) VH: QVQLVQSGAEVKKPGSSVKVSCKASGGTFSNYWIHWVRQAPGQGLEWMGGTYRSQSDTYYNQKFKSRVTITADKSTSTAYMELSSLRSEDTAVYYCARGAVYHGYDVIDNWGQGTLVTVSS VL: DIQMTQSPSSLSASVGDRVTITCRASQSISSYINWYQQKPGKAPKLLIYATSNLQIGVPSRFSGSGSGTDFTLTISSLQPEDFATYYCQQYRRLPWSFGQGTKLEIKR
Output: 8.64
